Just for reference, ChEMBL document CHEMBL3352660 is where these values come from.

assay: Apparent permeability of the compound by PAMPA; format: physicochemical
PROPERTY_MEASURED: Papp
Could you kindly put the unit after your number?

Query string: # input molecule: Cn1cc(-c2ccc(Oc3nccnc3-c3ccncc3)cc2)c2ncccc21 ; wanted: its Papp
Result string: 2.97 ×10⁻⁶ cm/s

----------
assay: Metabolic stability in Wistar rat liver microsomes incubated for 10 mins prior to NADPH addition measured after 60 mins by LC/MS/MS analysis; type: ADME; conditions: read-out: Stability
PROPERTY_MEASURED: remaining at 1 h (%)
Numbers only here, please. The scale is %.

Query string: # input compound: Cc1cnc2c(-c3ccc(Oc4ncccc4-c4ccncc4)cc3)cn(C)c2c1 ; wanted: its remaining at 1 h
Result string: 46.2

Query string: And for Cn1cc(-c2cccc(Oc3nccc(-c4cn[nH]c4)n3)c2)c2nc3ccccc3cc21 ?
Result string: 17.3

Query string: And for Cn1cc(-c2ccc(Oc3nccnc3-c3cncnc3)cc2)c2nc3ccccc3cc21 ?
Result string: 83.1

Query string: And for Cn1cc(-c2ccc(Oc3nccnc3-c3ccncc3)cc2)c2nc3ccccc3cc21 ?
Result string: 75

Query string: And for Cn1cc(-c2ccc(Oc3nccnc3-c3ccncc3)cc2)c2ncc(Cl)cc21 ?
Result string: 68

Query string: And for Cn1cc(-c2ccc(Oc3ncccc3-c3ccncc3)cc2)c2ncccc21 ?
Result string: 38.4

Query string: And for Cn1cc(C2CCC(Oc3nccnc3-c3cncnc3)CC2)c2ncccc21 (configuration not stated) ?
Result string: 72.5

----------
Would you kindly list inhibition for each of these compounds?
target: 3',5'-cyclic-AMP phosphodiesterase 4D (Homo sapiens) (UniProt Q08499); test: Inhibition of human recombinant PDE4D using [3H]-cAMP as substrate at 1 uM after 30 mins by two-step radiometric assay
Sequence (Q08499 whole entry): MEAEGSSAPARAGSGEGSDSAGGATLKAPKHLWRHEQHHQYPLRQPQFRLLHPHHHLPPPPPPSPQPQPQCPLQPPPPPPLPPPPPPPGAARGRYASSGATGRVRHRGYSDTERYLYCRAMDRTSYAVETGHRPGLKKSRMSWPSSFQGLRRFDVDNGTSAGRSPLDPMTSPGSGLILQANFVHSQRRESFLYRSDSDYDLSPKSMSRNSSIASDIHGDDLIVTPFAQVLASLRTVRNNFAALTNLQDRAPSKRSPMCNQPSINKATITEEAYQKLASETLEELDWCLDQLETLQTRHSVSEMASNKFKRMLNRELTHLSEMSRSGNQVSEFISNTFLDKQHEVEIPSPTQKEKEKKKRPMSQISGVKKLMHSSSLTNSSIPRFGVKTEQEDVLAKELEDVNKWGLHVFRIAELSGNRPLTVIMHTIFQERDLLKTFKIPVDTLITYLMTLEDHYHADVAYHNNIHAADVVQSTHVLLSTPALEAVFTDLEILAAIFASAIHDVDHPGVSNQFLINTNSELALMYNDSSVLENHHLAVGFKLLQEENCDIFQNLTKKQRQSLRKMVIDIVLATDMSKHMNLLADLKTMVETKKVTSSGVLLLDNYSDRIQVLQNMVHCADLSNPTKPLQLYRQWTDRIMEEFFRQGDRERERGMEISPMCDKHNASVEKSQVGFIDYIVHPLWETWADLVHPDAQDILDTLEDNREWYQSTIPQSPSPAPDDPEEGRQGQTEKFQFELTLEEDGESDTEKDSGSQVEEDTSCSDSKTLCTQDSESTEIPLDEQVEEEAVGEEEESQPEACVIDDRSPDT
Numbers only here, please. The scale is %.

Query string: # input compound: Cn1cc(-c2cccc(Oc3nccc(-c4cn[nH]c4)n3)c2)c2nc3ccccc3cc21 ; wanted: its inhibition
Result string: 7.9

Query string: And for Cn1cc(-c2ccc(Oc3nccnc3-c3ccncc3)cc2)c2ncccc21 ?
Result string: 0

Query string: And for Cn1cc(-c2ccc(Oc3ncccc3-c3ccncc3)cc2)c2ncccc21 ?
Result string: 0.9

Query string: And for Cc1cnc2c(-c3ccc(Oc4ncccc4-c4ccncc4)cc3)cn(C)c2c1 ?
Result string: 0

Query string: And for Cn1cc(-c2ccc(Oc3ncccc3-c3ccncc3)cc2)c2ncc(Cl)cc21 ?
Result string: 3.5

----------
test: Metabolic stability in CD1 mouse liver microsomes incubated for 10 mins prior to NADPH addition measured after 60 mins by LC/MS/MS analysis; type: ADME; settings: read-out: Stability
PROPERTY_MEASURED: remaining at 1 h (%)
Numbers only here, please. The scale is %.

Query string: # input molecule: Cn1cc(-c2ccc(Oc3nccnc3-c3ccncc3)cc2)c2nc3ccccc3cc21 ; wanted: its remaining at 1 h
Result string: 75.1

Query string: And for Cn1cc(-c2cccc(Oc3nccc(-c4cncnc4)n3)c2)c2nc3ccccc3cc21 ?
Result string: 3.9

Query string: And for Cn1cc(-c2ccc(Oc3nccnc3-c3ccncc3)cc2)c2ncc(Cl)cc21 ?
Result string: 70.5

Query string: And for Cn1cc(C2CCC(Oc3nccnc3-c3cncnc3)CC2)c2ncccc21 (configuration not stated) ?
Result string: 50.3

Query string: And for Cn1cc(C2=CCC(Oc3nccnc3-c3cncnc3)CC2)c2ncccc21 (configuration not stated) ?
Result string: 8.5

Query string: And for Cn1cc(-c2ccc(Oc3ncccc3-c3ccncc3)cc2)c2ncccc21 ?
Result string: 40.2

Query string: And for Cn1cc(-c2cccc(Oc3nccc(N4CCOCC4)n3)c2)c2nc3ccccc3cc21 ?
Result string: 0.6

----------
experiment: Metabolic stability in cynomolgus monkey liver microsomes incubated for 10 mins prior to NADPH addition measured after 60 mins by LC/MS/MS analysis; format: ADME, Macaca fascicularis; conditions: read-out: Stability
PROPERTY_MEASURED: remaining at 1 h (%)
Numbers only here, please. The scale is %.

Query string: # input compound: Cn1cc(C2CCC(Oc3nccnc3-c3cncnc3)CC2)c2ncccc21 (stereo not given) ; wanted: its remaining at 1 h
Result string: 0

Query string: And for Cn1cc(-c2ccc(Oc3nccnc3-c3cncnc3)cc2)c2nc3ccccc3cc21 ?
Result string: 68.3

Query string: And for Cn1cc(-c2cccc(Oc3nccc(N4CCOCC4)n3)c2)c2nc3ccccc3cc21 ?
Result string: 0.6

Query string: And for Cn1cc(-c2ccc(Oc3nccnc3-c3ccncc3)cc2)c2ncccc21 ?
Result string: 70.5

Query string: And for Cn1cc(C2=CCC(Oc3nccnc3-c3cncnc3)CC2)c2ncccc21 (stereo not given) ?
Result string: 0

----------
biological target: cGMP-specific 3',5'-cyclic phosphodiesterase (Homo sapiens) (UniProt O76074); experiment: Inhibition of human recombinant PDE5A using […] as substrate at 10 uM after 30 mins by scintillation proximity assay
Would you kindly list inhibition for each of these molecules?
Numbers only here, please. The scale is %.

Query string: # input molecule: Cn1cc(-c2cccc(Oc3nccc(N4CCOCC4)n3)c2)c2nc3ccccc3cc21 ; wanted: its inhibition
Result string: 33.3

Query string: And for Cn1cc(-c2ccc(Oc3nccnc3-c3ccncc3)cc2)c2ncccc21 ?
Result string: 21.6

Query string: And for Cc1cnc2c(-c3ccc(Oc4ncccc4-c4ccncc4)cc3)cn(C)c2c1 ?
Result string: 16.7

Query string: And for Cn1cc(-c2cccc(Oc3nccc(-c4cn[nH]c4)n3)c2)c2nc3ccccc3cc21 ?
Result string: 19

Query string: And for Cn1cc(-c2ccc(Oc3ncccc3-c3ccncc3)cc2)c2ncccc21 ?
Result string: 23.2

Query string: And for Cn1cc(-c2cccc(Oc3nccc(-c4cncnc4)n3)c2)c2nc3ccccc3cc21 ?
Result string: 23.6

Query string: And for Cn1cc(-c2ccc(Oc3ncccc3-c3ccncc3)cc2)c2ncc(Cl)cc21 ?
Result string: 3.1

Query string: And for Cn1cc(-c2ccc(Oc3nccnc3-c3ccncc3)cc2)c2nc3ccccc3cc21 ?
Result string: 19.3

Query string: And for Cn1cc(-c2ccc(Oc3nccnc3-c3cncnc3)cc2)c2nc3ccccc3cc21 ?
Result string: 17.3

Query string: And for Cn1cc(-c2ccc(Oc3nccnc3-c3ccncc3)cc2)c2ncc(Cl)cc21 ?
Result string: 19.3

----------
molecular target: High affinity 3',5'-cyclic-AMP phosphodiesterase 7A (Homo sapiens); experiment: Inhibition of human recombinant PDE7A using [3H]-cAMP as substrate at 1 uM after 30 mins by two-step radiometric assay
Classification scheme (inhibition): Low = under 4%, Mid = from 4% up to 6%, High = 6% and over

Query string: Hi, small favor: classify Cn1cc(-c2cccc(Oc3nccc(N4CCOCC4)n3)c2)c2nc3ccccc3cc21 by its inhibition when you get a moment.
Result string: Mid

Query string: And for Cn1cc(-c2cccc(Oc3nccc(-c4cn[nH]c4)n3)c2)c2nc3ccccc3cc21 ?
Result string: High

Query string: And for Cn1cc(-c2cccc(Oc3nccc(-c4cncnc4)n3)c2)c2nc3ccccc3cc21 ?
Result string: Mid

Query string: And for Cc1cnc2c(-c3ccc(Oc4ncccc4-c4ccncc4)cc3)cn(C)c2c1 ?
Result string: Low

Query string: And for Cn1cc(-c2ccc(Oc3nccnc3-c3ccncc3)cc2)c2ncccc21 ?
Result string: Low

Query string: And for Cn1cc(-c2ccc(Oc3ncccc3-c3ccncc3)cc2)c2ncccc21 ?
Result string: Mid

Query string: And for Cn1cc(-c2ccc(Oc3ncccc3-c3ccncc3)cc2)c2ncc(Cl)cc21 ?
Result string: High

----------
assay: AUC (0 to t) in Swiss albino mouse at 10 mg/kg, po; format: ADME, organism-based; set-up: dose 10 mg/kg, route oral; conditions: plasma
PROPERTY_MEASURED: AUC(0-t) (ng·h/mL)
Numbers only here, please. The scale is ng·h/mL.

Query string: # input compound: Cn1cc(-c2ccc(Oc3nccnc3-c3ccncc3)cc2)c2ncccc21 ; wanted: its AUC(0-t)
Result string: 31600

----------
biological target: Dual 3',5'-cyclic-AMP and -GMP phosphodiesterase 11A (Homo sapiens) (UniProt Q9HCR9); test: Inhibition of human recombinant PDE11A using [3H]-cAMP as substrate at 10 uM after 30 mins by two-step radiometric assay
Sequence (Q9HCR9 whole entry, looked up): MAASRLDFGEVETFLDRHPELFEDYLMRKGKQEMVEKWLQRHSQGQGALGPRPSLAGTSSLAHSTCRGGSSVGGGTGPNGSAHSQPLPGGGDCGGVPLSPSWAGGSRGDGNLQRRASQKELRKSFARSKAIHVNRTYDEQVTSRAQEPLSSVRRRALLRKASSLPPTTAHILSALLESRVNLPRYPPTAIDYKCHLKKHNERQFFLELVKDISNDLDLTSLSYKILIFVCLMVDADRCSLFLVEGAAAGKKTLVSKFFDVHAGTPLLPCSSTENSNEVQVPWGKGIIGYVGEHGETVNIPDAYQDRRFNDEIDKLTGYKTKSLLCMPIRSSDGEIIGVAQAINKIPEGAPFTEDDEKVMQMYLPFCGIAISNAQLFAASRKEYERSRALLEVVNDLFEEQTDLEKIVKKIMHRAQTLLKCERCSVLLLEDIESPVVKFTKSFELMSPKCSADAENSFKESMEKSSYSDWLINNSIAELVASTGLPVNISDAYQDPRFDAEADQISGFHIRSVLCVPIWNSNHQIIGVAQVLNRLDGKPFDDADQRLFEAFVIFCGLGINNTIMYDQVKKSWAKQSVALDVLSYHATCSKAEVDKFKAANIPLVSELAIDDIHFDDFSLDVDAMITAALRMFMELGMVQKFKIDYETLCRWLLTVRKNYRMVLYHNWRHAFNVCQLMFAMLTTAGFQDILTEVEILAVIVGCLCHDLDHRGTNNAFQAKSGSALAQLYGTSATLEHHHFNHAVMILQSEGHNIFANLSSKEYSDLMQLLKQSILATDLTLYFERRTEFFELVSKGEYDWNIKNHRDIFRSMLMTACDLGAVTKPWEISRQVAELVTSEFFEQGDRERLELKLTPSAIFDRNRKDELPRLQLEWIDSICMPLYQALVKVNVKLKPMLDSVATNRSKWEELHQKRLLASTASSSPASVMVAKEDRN
Would you kindly list inhibition for each of these compounds?
Numbers only here, please. The scale is %.

Query string: Lab request: please report inhibition under test system Dual 3',5'-cyclic-AMP and -GMP phosphodiesterase 11A (Homo sapiens) (UniProt Q9HCR9) for Cn1cc(-c2ccc(Oc3ncccc3-c3ccncc3)cc2)c2ncc(Cl)cc21
Result string: 3

Query string: And for Cn1cc(-c2cccc(Oc3nccc(-c4cn[nH]c4)n3)c2)c2nc3ccccc3cc21 ?
Result string: 38.5

Query string: And for Cn1cc(-c2cccc(Oc3nccc(-c4cncnc4)n3)c2)c2nc3ccccc3cc21 ?
Result string: 43.8

Query string: And for Cn1cc(-c2ccc(Oc3nccnc3-c3ccncc3)cc2)c2ncccc21 ?
Result string: 11.2

Query string: And for Cc1cnc2c(-c3ccc(Oc4ncccc4-c4ccncc4)cc3)cn(C)c2c1 ?
Result string: 8.3

Query string: And for Cn1cc(-c2ccc(Oc3ncccc3-c3ccncc3)cc2)c2ncccc21 ?
Result string: 29

Query string: And for Cn1cc(-c2cccc(Oc3nccc(N4CCOCC4)n3)c2)c2nc3ccccc3cc21 ?
Result string: 76.3

Query string: And for Cn1cc(-c2ccc(Oc3nccnc3-c3cncnc3)cc2)c2nc3ccccc3cc21 ?
Result string: 21.8

Query string: And for Cn1cc(-c2ccc(Oc3nccnc3-c3ccncc3)cc2)c2nc3ccccc3cc21 ?
Result string: 6.8

Query string: And for Cn1cc(-c2ccc(Oc3nccnc3-c3ccncc3)cc2)c2ncc(Cl)cc21 ?
Result string: 5.7
